Target Or Test System: Mitogen-activated protein kinase kinase kinase 2 (Homo sapiens) (UniProt Q9Y2U5)
Assay Text: wildtype MEKK2 PB1-MEK5 interaction enhancers or blockers – biochemical, single concentration, multiplex bead flow cytometry, confirmation (AID 1892)
Condition Set: Alexa488-MEK5 binding to MEKK2 WT, at 10 µM, actives lie on both sides
In all, about 5,900 compounds went through this assay and about 140 (2.4%) were called active. What follows is part of a selection rich in actives, with near analogues and random picks from the rest.
Quantity Name: binding response (% of control) (%)
Numeric answer only, unit % assumed.

What value of binding response (% of control) on Mitogen-activated protein kinase kinase kinase 2 (Homo sapiens) (UniProt Q9Y2U5) does C[C@H]1CCC(=O)N([C@H](CSc2ccccc2)Cc2ccccc2)CC1 have?
111

Field: binding response (% of control) (Mitogen-activated protein kinase kinase kinase 2 (Homo sapiens) (UniProt Q9Y2U5)). Entry: Cc1cccc(CN2CCC(CNC(=O)Nc3ccc(F)c(Cl)c3)CC2)c1
126

What binding response (% of control) appears in the records for this compound with Mitogen-activated protein kinase kinase kinase 2 (Homo sapiens) (UniProt Q9Y2U5)? Cc1ccccc1CCN(CC(=O)NC1CCCCC1)C(=O)c1csnn1
96

Fill in the recorded binding response (% of control) for this compound, with Mitogen-activated protein kinase kinase kinase 2 (Homo sapiens) (UniProt Q9Y2U5) as test system: Cc1cccc(/C=N/NC(=O)CNc2cccc3ccccc23)n1
103

What binding response (% of control) appears in the records for this compound with Mitogen-activated protein kinase kinase kinase 2 (Homo sapiens) (UniProt Q9Y2U5)? O=C(Cc1cccc2ccccc12)Nc1ccc2oc(-c3ccccc3)nc2c1
115
